# Tested system: N-acetyl-β-hexosaminidase
# Protocol details: N-acetyl-β-hexosaminidase inhibition assay (in situ screen, IC50, Ki)
# Condition details: value in brackets; read-out: N-acetyl-β-hexosaminidse (Ki)

| Smiles code | Tested system | Ki [nM] |
| --- | --- | --- |
| CC(=O)NC[C@H]1N[C@H](CO)[C@@H](O)[C@@H]1O | N-acetyl-β-hexosaminidase | 22 |

###

# Tested system: α-glucosidase (Saccharomyces cerevisiae, UniProt P53341)
# Construct: purchased Sigma Co. (St. Louis, Mo.); host or cells: baker's yeast
# Sequence (P53341 whole entry): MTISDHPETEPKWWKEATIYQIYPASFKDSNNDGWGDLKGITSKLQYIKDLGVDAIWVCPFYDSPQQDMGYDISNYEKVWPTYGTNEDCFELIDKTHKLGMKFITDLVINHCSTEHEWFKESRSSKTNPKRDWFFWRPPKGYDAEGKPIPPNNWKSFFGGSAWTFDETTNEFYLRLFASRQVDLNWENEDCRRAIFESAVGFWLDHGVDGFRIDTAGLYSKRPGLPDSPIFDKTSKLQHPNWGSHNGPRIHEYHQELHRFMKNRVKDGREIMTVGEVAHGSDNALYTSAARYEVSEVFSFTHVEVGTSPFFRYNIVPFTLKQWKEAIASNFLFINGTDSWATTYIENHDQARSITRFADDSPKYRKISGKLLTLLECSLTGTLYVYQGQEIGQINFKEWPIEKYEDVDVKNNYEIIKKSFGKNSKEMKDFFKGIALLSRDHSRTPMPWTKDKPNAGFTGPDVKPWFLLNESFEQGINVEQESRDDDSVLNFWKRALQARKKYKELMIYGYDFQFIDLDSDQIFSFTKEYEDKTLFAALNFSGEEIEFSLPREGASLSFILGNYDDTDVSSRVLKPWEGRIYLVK
# Protocol details: α-glucosidase inhibition assay (in situ screen, IC50, Ki)
# Type: biochemical, baker's yeast
# Condition details: text b34; read-out: Ki against yeast α-glucosidase
Parameter measured: Ki (µM)

| Compound | Meas value |
| --- | --- |
| O=C(NC[C@H]1N[C@H](CO)[C@@H](O)[C@@H]1O)C1Cc2ccccc21 (stereo partly shown) | 0.053 |

###

pIC50 listing for selected compounds.
# Tested system: N-acetyl-β-hexosaminidase
# Protocol details: N-acetyl-β-hexosaminidase inhibition assay (in situ screen, IC50, Ki)
# Condition details: pure compound; read-out: N-acetyl-β-hexosaminidse IC50
pIC50: −log10 of the molar value.

| Compound | pIC50 |
| --- | --- |
| COC(=O)c1ccc2[nH]c(C(=O)NC[C@H]3N[C@H](CO)[C@@H](O)[C@@H]3O)cc2c1 | 4.38 |
| CC(=O)NC[C@H]1N[C@H](CO)[C@@H](O)[C@@H]1O | 6.80 |
| O=C(NC[C@H]1N[C@H](CO)[C@@H](O)[C@@H]1O)c1ccc2ccccc2c1 | 4.36 |
| CCCCC(CC)C(=O)NC[C@H]1N[C@H](CO)[C@@H](O)[C@@H]1O (stereo partly shown) | 4.72 |
| O=C(CCc1c[nH]c2ccccc12)NC[C@H]1N[C@H](CO)[C@@H](O)[C@@H]1O | 5.49 |
| O=C(NC[C@H]1N[C@H](CO)[C@@H](O)[C@@H]1O)c1cn(Cc2ccccc2)c2ccccc12 | 5.33 |
| O=C(Cc1ccc2ccccc2c1)NC[C@H]1N[C@H](CO)[C@@H](O)[C@@H]1O | 4.82 |
| CN(C)c1ccc(/C=C/C(=O)NC[C@H]2N[C@H](CO)[C@@H](O)[C@@H]2O)cc1 | 5.15 |
| O=C(NC[C@H]1N[C@H](CO)[C@@H](O)[C@@H]1O)C1Cc2ccccc21 (stereo partly shown) | 4.96 |
| O=C(/C=C/c1c[nH]c2ccccc12)NC[C@H]1N[C@H](CO)[C@@H](O)[C@@H]1O | 4.20 |

###

# Tested system: β-glucosidase
# Protocol details: β-glucosidase inhibition assay (in situ screen, IC50, Ki)
# Condition details: value in brackets

| Smiles code | Endpoint unit | Ki |
| --- | --- | --- |
| CN(C)c1ccc(/C=C/C(=O)NC[C@H]2N[C@H](CO)[C@@H](O)[C@@H]2O)cc1 | µM | 1.4 |
| COC(=O)c1ccc2[nH]c(C(=O)NC[C@H]3N[C@H](CO)[C@@H](O)[C@@H]3O)cc2c1 | µM | 6.2 |
| O=C(NC[C@H]1N[C@H](CO)[C@@H](O)[C@@H]1O)c1ccc2ccccc2c1 | µM | 30 |

###

# Tested system: β-glucosidase
# Protocol details: β-glucosidase inhibition assay (in situ screen, IC50, Ki)
# Condition details: pure compound
Parameter measured: log10 of IC50 (log10 of the value in µM)

| Compound | log10 of IC50 |
| --- | --- |
| O=C(NC[C@H]1N[C@H](CO)[C@@H](O)[C@@H]1O)c1ccc2ccccc2c1 [Compound 15] | 1.76 |
| COC(=O)c1ccc2[nH]c(C(=O)NC[C@H]3N[C@H](CO)[C@@H](O)[C@@H]3O)cc2c1 [Compound 18] | 1.00 |
| CCCCC(CC)C(=O)NC[C@H]1N[C@H](CO)[C@@H](O)[C@@H]1O (some centres unmarked) [Compound 7] | 0.68 |
| O=C(/C=C/c1c[nH]c2ccccc12)NC[C@H]1N[C@H](CO)[C@@H](O)[C@@H]1O [Compound 22] | 2.41 |
| O=C(Cc1ccc2ccccc2c1)NC[C@H]1N[C@H](CO)[C@@H](O)[C@@H]1O [Compound 16] | 1.69 |
| O=C(NC[C@H]1N[C@H](CO)[C@@H](O)[C@@H]1O)C1Cc2ccccc21 (some centres unmarked) [Compound 24] | 1.96 |
| O=C(Cc1cccc2ccccc12)NC[C@H]1N[C@H](CO)[C@@H](O)[C@@H]1O [Compound 17] | 1.96 |

###

# Tested system: α-glucosidase (Saccharomyces cerevisiae, UniProt P53341)

| Molecule | IC50 / µM |
| --- | --- |
| CCCCC(CC)C(=O)NC[C@H]1N[C@H](CO)[C@@H](O)[C@@H]1O (some centres unmarked) | 4 |
| O=C(Cc1cccc2ccccc12)NC[C@H]1N[C@H](CO)[C@@H](O)[C@@H]1O | 0.28 |
| O=C(Cc1ccc2ccccc2c1)NC[C@H]1N[C@H](CO)[C@@H](O)[C@@H]1O | 19 |
| CC(=O)NC[C@H]1N[C@H](CO)[C@@H](O)[C@@H]1O | 280 |
| CN(C)c1ccc(/C=C/C(=O)NC[C@H]2N[C@H](CO)[C@@H](O)[C@@H]2O)cc1 | 280 |

###

# System: β-glucosidase
# Protocol details: β-glucosidase inhibition assay (in situ screen, IC50, Ki)
# Type: biochemical, almonds
# Condition details: reaction product at 20 μM, in situ screening
Lab note: anything with β-glucosidase Inhibition (%) at or over 40% counts as MET; the rest go in NOT MET.

| Compound | Discrete label |
| --- | --- |
| CN(C)c1ccc(/C=C/C(=O)NC[C@H]2N[C@H](CO)[C@@H](O)[C@@H]2O)cc1 [Compound 29] | MET |
| O=C(CO)NC[C@H]1N[C@H](CO)[C@@H](O)[C@@H]1O [Compound 6] | NOT MET |
| O=C(NC[C@H]1N[C@H](CO)[C@@H](O)[C@@H]1O)c1ccccc1 [Compound 10] | NOT MET |
| Cc1ccc(/C=C/C(=O)NC[C@H]2N[C@H](CO)[C@@H](O)[C@@H]2O)cc1 [Compound 27] | MET |
| COC(=O)c1ccc2[nH]c(C(=O)NC[C@H]3N[C@H](CO)[C@@H](O)[C@@H]3O)cc2c1 [Compound 18] | MET |
| O=C(Cc1cccc2ccccc12)NC[C@H]1N[C@H](CO)[C@@H](O)[C@@H]1O [Compound 17] | MET |
| O=C(NC[C@H]1N[C@H](CO)[C@@H](O)[C@@H]1O)c1ccc2ccccc2c1 [Compound 15] | NOT MET |
